- TEST_SYSTEM: human MCH receptor expressed from the open reading frame cDNA SEQ. ID. NO. 1 in 293-AEQ17 cells (human, UniProt Q99705 1-353)
- Sequence (Q99705 whole entry): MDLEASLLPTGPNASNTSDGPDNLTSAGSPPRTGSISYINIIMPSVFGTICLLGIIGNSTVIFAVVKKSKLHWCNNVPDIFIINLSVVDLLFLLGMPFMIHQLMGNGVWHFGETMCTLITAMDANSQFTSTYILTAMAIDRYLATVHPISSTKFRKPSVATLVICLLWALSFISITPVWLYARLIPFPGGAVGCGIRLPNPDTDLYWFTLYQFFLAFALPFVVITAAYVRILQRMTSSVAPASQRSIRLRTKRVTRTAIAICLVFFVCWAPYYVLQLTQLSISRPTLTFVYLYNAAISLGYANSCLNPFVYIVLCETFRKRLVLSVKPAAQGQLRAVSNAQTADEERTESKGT
- TEST: cell-based or functional assay
Bridges are numbered along the chain shown (N, C = ends). Where no end group is shown, it is not given here.
// values below are reported Activation %
Report the value in % with no unit label.

RCMLGXVYRPC (N-methyl-arginine at position 11; N-terminal acetyl, C-terminal amide, Cys-Cys disulfide as in SEQ. ID. NO. 7) [MCH analog SEQ. ID. NO. 28 (N-Me-Arg^11)]    110
RCMXGRVYRPC (N-methyl-leucine at position 9; N-terminal acetyl, C-terminal amide, Cys-Cys disulfide as in SEQ. ID. NO. 7, ID; NO; 7 peptide; MCH position numbering) [MCH analog SEQ. ID. NO. 26 (N-Me-Leu^9)]    3
Ac-RCMLGRVYRPC-NH2 (disulfide 2-11 (inferred), Corresponds to MCH positions 6-16; also called ID; NO; 7 MCH analog) [truncated MCH analog SEQ. ID. NO. 7: Ac-Arg-Cys-Met-Leu-Gly-Arg-Val-Tyr-Arg-Pro-Cys-amide]    99
RCMLXRVYRPC (sarcosine at position 10; N-terminal acetyl, C-terminal amide, Cys-Cys disulfide as in SEQ. ID. NO. 7, ID; NO; 7 peptide; MCH position numbering) [MCH analog SEQ. ID. NO. 27 (Sar^10)]    95
DFDMLRCMLGRVYRPCWQV (disulfide 7-16) [mammalian MCH (SEQ. ID. NO. 11)]    100

What value of measured Activation % is listed for RCXLGRVYRPC (N-methyl-norleucine at position 8; N-terminal acetyl, C-terminal amide, Cys-Cys disulfide as in SEQ. ID. NO. 7, ID; NO; 7 peptide; MCH position numbering) [MCH analog SEQ. ID. NO. 25 (N-Me-Nle^8)] ?
110

What value of measured Activation % is listed for RCMLGRVYRXC (sarcosine at position 15; N-terminal acetyl, C-terminal amide, Cys-Cys disulfide as in SEQ. ID. NO. 7) [MCH analog SEQ. ID. NO. 30 (Sar^15)] ?
113
